molecular target: human Yes1 enzyme (Homo sapiens, UniProt P07947); construct: made in house; assay: Yes1 enzyme inhibitory activity (time-resolved fluorometry, biotinylated peptide phosphorylation); assay type: biochemical; settings: read-out: YES_IC50
Sequence (P07947 whole entry): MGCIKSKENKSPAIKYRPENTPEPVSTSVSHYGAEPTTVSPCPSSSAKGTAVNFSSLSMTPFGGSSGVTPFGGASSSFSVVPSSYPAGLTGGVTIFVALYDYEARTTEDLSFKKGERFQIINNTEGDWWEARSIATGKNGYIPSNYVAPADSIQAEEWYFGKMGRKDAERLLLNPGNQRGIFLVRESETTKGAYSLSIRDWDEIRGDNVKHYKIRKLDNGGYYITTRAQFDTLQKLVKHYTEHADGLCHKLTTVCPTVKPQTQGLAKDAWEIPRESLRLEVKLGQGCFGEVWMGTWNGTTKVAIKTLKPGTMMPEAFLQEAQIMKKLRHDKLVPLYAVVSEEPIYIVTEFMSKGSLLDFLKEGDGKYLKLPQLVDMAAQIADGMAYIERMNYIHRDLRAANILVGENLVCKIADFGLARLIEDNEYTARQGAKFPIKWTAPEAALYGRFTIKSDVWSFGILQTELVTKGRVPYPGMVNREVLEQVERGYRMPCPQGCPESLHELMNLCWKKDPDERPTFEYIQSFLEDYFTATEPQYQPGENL
I'd be grateful if you could share measured log10 IC50 for these entries.
// units: nM (pre-log); metric: IC50; scale: log10

>>> readout_number("Cc1cc(-n2ncc(C(=O)c3cc4cc(F)c(NS(C)(=O)=O)cc4[nH]3)c2N)cnc1Oc1ccccc1Cl")
1.97

Hey, can you go through the list below and give me log10 IC50 for every item?
1. Cc1cc(Oc2cc(F)cc(F)c2)nc(C)c1-n1ncc(C(=O)c2cc3cc(F)c(NS(C)(=O)=O)cc3[nH]2)c1N
2. CC(=O)N1CCC(c2cc3[nH]c(C(=O)c4cnn(-c5cnc(Oc6ccccc6F)cc5C)c4N)cc3cc2C)CC1
3. Cc1cc(-n2ncc(C(=O)c3cc4cc(OC5CCN(C(C)C)CC5)c(NS(C)(=O)=O)cc4[nH]3)c2N)ccc1Oc1ccccc1F
4. Cc1cc(-n2ncc(C(=O)c3cc4cc(N5CCOCC5)c(N5C(=O)NC(C)(C)C5=O)cc4[nH]3)c2N)ccc1Oc1ccccc1F
5. Cc1cc(-n2ncc(C(=O)c3cc4cc(N5CCOCC5)c(N5CCOC5=O)cc4[nH]3)c2N)ccc1Oc1ccccc1F
6. Cc1cc(Oc2c(F)cccc2F)ncc1-n1ncc(C(=O)c2cc3cc(OC4CCN(C5CCCC5)CC4)c(-c4ccccc4Cl)cc3[nH]2)c1N
7. Cc1cc(Oc2c(F)cccc2F)ncc1-n1ncc(C(=O)c2cc3cc(F)c(NC4CN(S(C)(=O)=O)C4)cc3[nH]2)c1N

Completion:
2.18
-0.20
0.20
0.26
-0.15
0.28
-0.11

---

target: human Lck enzyme (Homo sapiens, UniProt P06239); construct: purchased Carna Biosciences, Inc. 08-170; test: Lck enzyme inhibitory activity (time-resolved fluorometry, biotinylated peptide phosphorylation); assay type: biochemical; conditions: read-out: LCK_IC50
Sequence (P06239 whole entry): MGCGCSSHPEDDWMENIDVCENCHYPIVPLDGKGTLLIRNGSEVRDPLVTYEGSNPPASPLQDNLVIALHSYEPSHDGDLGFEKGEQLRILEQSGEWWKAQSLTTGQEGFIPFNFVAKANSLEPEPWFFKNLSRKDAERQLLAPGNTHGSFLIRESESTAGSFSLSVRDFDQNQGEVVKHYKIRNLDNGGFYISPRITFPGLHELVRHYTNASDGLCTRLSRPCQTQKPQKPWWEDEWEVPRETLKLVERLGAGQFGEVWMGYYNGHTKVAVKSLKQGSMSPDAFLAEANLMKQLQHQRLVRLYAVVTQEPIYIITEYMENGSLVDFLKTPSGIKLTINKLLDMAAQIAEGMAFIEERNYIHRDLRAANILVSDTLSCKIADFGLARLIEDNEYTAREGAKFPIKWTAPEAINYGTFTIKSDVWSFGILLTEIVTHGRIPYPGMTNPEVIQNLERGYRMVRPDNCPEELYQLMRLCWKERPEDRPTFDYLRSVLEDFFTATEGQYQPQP
I'd be grateful if you could share measured log10 IC50 for these entries.
// units: nM (pre-log); metric: IC50; scale: log10

Consider the worked cases shown below.
>>> readout_number("Cc1cc(Oc2ccccc2F)ncc1-n1ncc(C(=O)c2cc3cc(F)c(NS(=O)(=O)NC4CC4)cc3[nH]2)c1N")
1.71
>>> readout_number("Cc1cc(Oc2ccccc2F)ccc1-n1ncc(C(=O)c2cc3cc(OCC(F)F)c(N4C(=O)NC5(CCN(Cc6ccccc6)C5)C4=O)cc3[nH]2)c1N (stereo not drawn)")
1.11
>>> readout_number("Nc1c(C(=O)c2cc3cc(F)c(NS(=O)(=O)CCCF)cc3[nH]2)cnn1-c1ccc(Oc2ncccc2F)cc1F")
1.54
>>> readout_number("COc1cccc(S(=O)(=O)Nc2cc3[nH]c(C(=O)c4cnn(-c5cnc(Oc6c(F)cccc6F)cc5C)c4N)cc3cc2OCC(F)F)c1")
2.43
>>> readout_number("COc1cc2cc(C(=O)c3cnn(-c4cnc(Oc5c(F)cccc5F)cc4C)c3N)[nH]c2cc1NS(=O)(=O)CC(=O)N1CCOCC1")
1.04

Hey, can you go through the list below and give me log10 IC50 for every item?
1. Cc1cc(Oc2c(F)cccc2F)ncc1-n1ncc(C(=O)c2cc3cc(OC4CCN(C(C)C)CC4)c(N4C(=O)NC(C)(C)C4=O)cc3[nH]2)c1N
2. Cc1cc(Oc2c(F)cccc2F)ncc1-n1ncc(C(=O)c2cc3cc(OC4CCN(C(C)C)CC4)c(-c4cncnc4)cc3[nH]2)c1N
3. Cc1cc(Oc2c(F)cccc2F)ncc1-n1ncc(C(=O)c2cc3cc(OC4CCN(C(C)C)CC4)c(-c4cccs4)cc3[nH]2)c1N
4. Cc1cc(-n2ncc(C(=O)c3cc4cc(OC5CCN(C(C)C)CC5)c(-c5cccs5)cc4[nH]3)c2N)ccc1Oc1ccccc1F
5. Cc1cc2cc(C(=O)c3cnn(-c4ccc(Oc5ncccc5Cl)cc4Cl)c3N)[nH]c2cc1NS(=O)(=O)N1CCOCC1
6. Cc1cc(Oc2c(F)cccc2F)ncc1-n1ncc(C(=O)c2cc3cc(C(C)C)c(NS(=O)(=O)C4CCCCC4)cc3[nH]2)c1N
7. CC(C)N1CCC(c2cc3[nH]c(C(=O)c4cnn(-c5ccc(Oc6ccccc6Cl)cc5)c4N)cc3cc2F)CC1

Completion:
0.08
0.79
1.20
2.53
2.08
2.60
0.34

---

molecular target: human Yes1 enzyme (Homo sapiens, UniProt P07947); construct: made in house; assay: Yes1 enzyme inhibitory activity (time-resolved fluorometry, biotinylated peptide phosphorylation); format: biochemical; settings: biotinylated peptide phosphorylation, read-out: YES_IC50
I'd be grateful if you could share measured IC50 for these entries.
Give bare numbers, in nM.

Consider the worked cases shown below.
>>> readout_number("Cc1cccc(S(=O)(=O)Nc2cc3[nH]c(C(=O)c4cnn(-c5cnc(Oc6ccccc6F)cc5C)c4N)cc3cc2C)c1")
6.1
>>> readout_number("Cc1cc(Oc2c(F)cccc2F)ncc1-n1ncc(C(=O)c2cc3cc(OCC(F)F)c(NS(=O)(=O)c4cncc(Cl)c4)cc3[nH]2)c1N")
4.3

Now consider a different compound.
Prompt: Tell me the measured IC50 of `Cc1cc(Oc2ccccc2F)ccc1-n1ncc(C(=O)c2cc3cc(OC(F)F)c(N4CCOC4=O)cc3[nH]2)c1N` , please.
Completion: 0.51

---

target: human Yes1 enzyme (Homo sapiens, UniProt P07947); construct: made in house; assay: Yes1 enzyme inhibitory activity (time-resolved fluorometry, biotinylated peptide phosphorylation); type: biochemical; settings: biotinylated peptide phosphorylation, read-out: YES_IC50
I'd be grateful if you could share measured IC50 for these entries.
Answers are plain numbers, in nM.

Consider the worked cases shown below.
>>> readout_number("Cc1cc2cc(C(=O)c3cnn(-c4ccc(Oc5cccc(F)c5F)cc4C)c3N)[nH]c2cc1NS(=O)(=O)N1CCOCC1")
1.4
>>> readout_number("Cc1cc2cc(C(=O)c3cnn(-c4cnc(Oc5ccccc5F)cc4C)c3N)[nH]c2cc1NS(=O)(=O)c1cnc(N(C)C)nc1")
6.6
>>> readout_number("COc1ccnc(S(=O)(=O)Nc2cc3[nH]c(C(=O)c4cnn(-c5ccc(Oc6ccccc6F)cc5C)c4N)cc3cc2F)c1")
1.2
>>> readout_number("Cc1cc(Oc2c(F)cccc2F)ncc1-n1ncc(C(=O)c2cc3cc(F)c(N(CCN4CCOCC4)S(C)(=O)=O)cc3[nH]2)c1N")
1.2
>>> readout_number("Cc1cc2cc(C(=O)c3cnn(-c4cnc(Oc5cccc(Cl)c5)cc4C)c3N)[nH]c2cc1NS(=O)(=O)CCCF")
10

Now consider a different compound.
Prompt: Tell me the measured IC50 of `Cc1cc(Oc2ccccc2F)cc(F)c1-n1ncc(C(=O)c2cc3cc(Cl)c(NS(C)(=O)=O)cc3[nH]2)c1N` , please.
Completion: 2.6

---

Biological target: human Yes1 enzyme (Homo sapiens, UniProt P07947)
Construct: made in house
Test: Yes1 enzyme inhibitory activity (time-resolved fluorometry, biotinylated peptide phosphorylation)
Type: biochemical
Conditions: biotinylated peptide phosphorylation, read-out: YES_IC50
Method: 1. Yes1 Enzyme Inhibitory Activity Yes1 inhibitory activity was determined based on activity of inhibiting phosphorylation reaction of a biotinylated peptide (EGPWLEEEEEAYGWMDF) using a human Yes1 enzyme prepared using a baculovirus expression system. The phosphorylated biotinylated peptide was detected by time-resolved fluorometry using an anti-phosphorylated tyrosine antibody conjugated to europium cryptate, and streptavidin conjugated to XL665, an allophycocyanin derivative. […]
MEASURED_PARAMETER: pIC50
Numbers only, as −log10 of the molar value.

Consider the worked cases shown below.
>>> readout_number("Cc1cc(Oc2ccccc2F)ccc1-n1ncc(C(=O)c2cc3cc(OC(F)F)c(NS(=O)(=O)CCC(F)F)cc3[nH]2)c1N [Example 4-24-004]")
8.51
>>> readout_number("Cc1cc(Oc2cccc(F)c2F)ccc1-n1ncc(C(=O)c2cc3cc(F)c(C4CCN(C(C)C)CC4)cc3[nH]2)c1N [Example 4-2-011]")
8.66
>>> readout_number("CC(=O)N1CCC(c2cc3[nH]c(C(=O)c4cnn(-c5cnc(Oc6ccccc6F)cc5C)c4N)cc3cc2OC(F)F)CC1 [Example 4-17-008]")
8.80
>>> readout_number("Cc1cc2cc(C(=O)c3cnn(-c4cnc(Oc5c(F)cccc5F)cc4C)c3N)[nH]c2cc1NS(=O)(=O)c1cc(F)cc(F)c1 [Example 5-1-561]")
7.77
>>> readout_number("Cc1cc2cc(C(=O)c3cnn(-c4ccc(Oc5ccccc5F)cc4C)c3N)[nH]c2cc1NS(=O)(=O)N1CCOCC1 [Example 4-2-105]")
9.44
>>> readout_number("Cc1cc(Oc2ccccc2)cc(F)c1-n1ncc(C(=O)c2cc3cc(Cl)c(NS(C)(=O)=O)cc3[nH]2)c1N [Example 4-2-084]")
8.20

Hey, can you go through the list below and give me pIC50 for every item?
1. Cc1cc2cc(C(=O)c3cnn(-c4cnc(Oc5ccccc5F)cc4C)c3N)[nH]c2cc1NS(=O)(=O)c1cc(C#N)ccn1 [Example 5-1-478]
2. Cc1cc(Oc2ccccc2F)ccc1-n1ncc(C(=O)c2cc3cc(F)c(N4C(=O)[C@@H]5C[C@@H](O)CN5C4=O)cc3[nH]2)c1N [Example 5-1-449]
3. Cc1cc(Oc2cccc(Cl)c2)ccc1-n1ncc(C(=O)c2cc3cc(F)c(C4CCN(C(C)C)CC4)cc3[nH]2)c1N [Example 4-2-013]
4. Cc1cc(Oc2ccccc2F)ncc1-n1ncc(C(=O)c2cc3cc(N4CCOCC4)c(N4CCCS4(=O)=O)cc3[nH]2)c1N [Example 4-25-007]
5. COc1cc2cc(C(=O)c3cnn(-c4ccc(Oc5ccccc5F)cc4C)c3N)[nH]c2cc1NS(=O)(=O)N1CCOCC1 [Example 4-12-003]
6. Cc1ccnc(S(=O)(=O)Nc2cc3[nH]c(C(=O)c4cnn(-c5cnc(Oc6ccccc6F)cc5C)c4N)cc3cc2C)c1 [Example 5-1-506]
7. Cc1cc(Oc2c(F)cccc2F)ncc1-n1ncc(C(=O)c2cc3cc(F)c(N4C(=O)N[C@@H](Cc5ccccc5)C4=O)cc3[nH]2)c1N [Example 5-1-430]

Completion:
1: 8.32; 2: 9.18; 3: 8.96; 4: 8.96; 5: 9.27; 6: 8.52; 7: 8.08
